Origin of the recorded values: patent US20250222146A1

# Target of assay: UniProt P30874
# Sequence (P30874 whole entry): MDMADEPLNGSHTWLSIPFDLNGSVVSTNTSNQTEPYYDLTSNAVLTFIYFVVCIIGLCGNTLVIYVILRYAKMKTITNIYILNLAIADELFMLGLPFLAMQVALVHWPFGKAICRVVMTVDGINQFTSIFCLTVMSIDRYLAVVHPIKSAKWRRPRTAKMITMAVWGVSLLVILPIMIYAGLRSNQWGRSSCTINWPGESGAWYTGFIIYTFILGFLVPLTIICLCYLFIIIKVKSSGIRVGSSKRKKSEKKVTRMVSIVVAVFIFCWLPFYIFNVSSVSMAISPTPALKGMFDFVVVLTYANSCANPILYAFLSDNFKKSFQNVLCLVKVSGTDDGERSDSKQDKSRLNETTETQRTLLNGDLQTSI
# Method notes: SSTR binding affinity by radioligand binding competition assay ([125I]-Tyr11-Somatostatin, membrane extracts)
# Experimental parameters: radioligand competition, [125I]-Tyr11-Somatostatin 0.1 nM, membrane extracts; Ki from IC50 by Cheng Prusoff; read-out: SSTR2 Ki
Numbered stars: 1 amine (or outer) side, 2 acyl side, 3 side chain; on linkers, the order of the positions; unused ones are H or OH. Square brackets hold non-standard residues; d marks the D form. Peptide text beside a SMILES is read from it. * marks the point of attachment. DOTA(Lu)NH(CH2)6NHCOCH2 = O=C(CN1CCN2CCN3CCN(CC1)CC(=O)[O][Lu]([O]C(=O)C2)[O]C(=O)C3)NCCCCCCNC(=O)C*; X24 = O=C1CN2CCN3CCN(CC(=O)N4CC(CC(=O)*)C4)CCN(CC2)CC(=O)[O][Lu]([O]1)[O]C(=O)C3; Ala(piperidin-4-yl) = O=C([C@H](CC1CCN([*:3])CC1)N[*:1])[*:2]; dTrp(βS-Me) = C[C@@H](c1c[nH]c2ccccc12)[C@@H](N)C(=O)O; Phe(2-CONH2) = NC(=O)c1ccccc1C[C@H](N)C(=O)O; Phe(3R-Me) = C[C@H](c1ccccc1)[C@H](N)C(=O)O; 4Pal = N[C@@H](Cc1ccncc1)C(=O)O; NMehCys = CN[C@@H](CCS)C(=O)O; NMeK = CN[C@@H](CCCCN)C(=O)O
Measured parameter: Ki

• C[C@H](c1ccccc1)[C@@H]1NC(=O)[C@H]([C@@H](C)O)NC(=O)[C@H](CCCCN)NC(=O)[C@@H](Cc2c[nH]c3ccccc23)NC(=O)[C@H](Cc2ccncc2)NC(=O)[C@H](CCSCC(=O)NCCCCCCNC(=O)CN2CCN3CCN4CCN(CC2)CC(=O)[O][Lu]([O]C(=O)C3)[O]C(=O)C4)N(C)C1=O [RB-0003449] (cyclo([4Pal][dW]KT[Phe(3R-Me)][NMehCys](DOTA(Lu)NH(CH2)6NHCOCH2))) = 10 to 33.3 nM
• C[C@@H](O)[C@@H]1NC(=O)[C@H](CC2CCNCC2)NC(=O)[C@@H]([C@@H](C)c2c[nH]c3ccccc23)NC(=O)[C@H](Cc2ccc(O)cc2)NC(=O)[C@H](CCCCNC(=O)CC2CN(C(=O)CN3CCN4CCN5CCN(CC3)CC(=O)[O][Lu]([O]C(=O)C5)[O]C(=O)C4)C2)N(C)C(=O)[C@H](Cc2ccccc2)NC1=O [RB-0006461] (cyclo(F[NMeK](X24)Y[dTrp(βS-Me)][Ala(piperidin-4-yl)]T)) = 3.33 to 10 nM

Consider now this further molecule.
Query: Sample C[C@@H](O)[C@@H]1NC(=O)[C@H](CCCCN)NC(=O)[C@@H](Cc2c[nH]c3ccccc23)NC(=O)[C@H](Cc2ccccc2C(N)=O)NC(=O)[C@H](CCSCC(=O)NCCCCCCNC(=O)CN2CCN3CCN4CCN(CC2)CC(=O)[O][Lu]([O]C(=O)C3)[O]C(=O)C4)N(C)C(=O)[C@H](Cc2ccccc2)NC1=O [RB-0003304] (cyclo(F[NMehCys](DOTA(Lu)NH(CH2)6NHCOCH2)[Phe(2-CONH2)][dW]KT)) — what was its Ki?
Result: 3.33 to 10 nM
